Each recorded value in this set is attributed to ChEMBL document CHEMBL1154226.

Biological target: Cytochrome P450 3A4 (Homo sapiens)
Sequence (P08684 whole entry): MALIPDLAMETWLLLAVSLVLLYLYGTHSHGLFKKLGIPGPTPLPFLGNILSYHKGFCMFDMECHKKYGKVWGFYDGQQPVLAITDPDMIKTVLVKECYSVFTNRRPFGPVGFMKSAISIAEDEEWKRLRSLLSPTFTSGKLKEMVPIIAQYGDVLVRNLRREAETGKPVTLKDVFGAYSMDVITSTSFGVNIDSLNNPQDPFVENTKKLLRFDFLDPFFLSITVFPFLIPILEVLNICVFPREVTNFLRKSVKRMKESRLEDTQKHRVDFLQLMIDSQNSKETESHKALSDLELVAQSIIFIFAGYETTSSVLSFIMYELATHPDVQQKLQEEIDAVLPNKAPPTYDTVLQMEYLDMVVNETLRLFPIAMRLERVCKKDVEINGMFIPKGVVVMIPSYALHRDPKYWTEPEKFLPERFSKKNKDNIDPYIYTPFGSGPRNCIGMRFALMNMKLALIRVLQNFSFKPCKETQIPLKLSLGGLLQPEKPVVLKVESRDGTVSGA
Assay: Inhibition of human recombinant CYP3A4-mediated oxidation of 7-benzyloxyquinoline
pIC50: −log10 of the molar value.
quantity name: pIC50

Study these solved cases before continuing.
[[record]]
compound = "CCN(C[C@H](Cc1ccccc1)NC(=O)OCc1cnco1)C[C@H](Cc1ccccc1)NC(=O)OCc1cnco1"
test_result = 6.56

[[record]]
compound = "CCN(CC(CC(=O)OC)NC(=O)OCc1cncs1)CC(CC(=O)OC)NC(=O)OCc1cncs1 (configuration not stated)"
test_result = 7.06


a. CCN(CC(CC1CCCCC1)NC(=O)OCc1cncs1)CC(CC1CCCCC1)NC(=O)OCc1cncs1 (configuration not stated)
b. CCN(C[C@H](Cc1ccccc1)NC(=O)OCc1cnc[nH]1)C[C@H](Cc1ccccc1)NC(=O)OCc1cnc[nH]1
c. CCN(C[C@H](Cc1ccccc1)NC(=O)OCc1cccs1)C[C@H](Cc1ccccc1)NC(=O)OCc1cccs1
d. CCN(C[C@H](CC(C)C)NC(=O)OCc1cncs1)C[C@H](CC(C)C)NC(=O)OCc1cncs1
Arrange the 4 entries by pIC50 so the values rise. Form field (ranking): labels in requested order.
c, b, d, a

---

Assay: in vivo
Conditions: Beagle, dog, po, 5 mg/kg
quantity name: Cmax (ng/mL)

a. O=C(NC(Cc1ccccc1)CN(CC(Cc1ccccc1)NC(=O)OCc1cncs1)CC(Cc1ccccc1)NC(=O)OCc1cncs1)OCc1cncs1 (stereo not drawn)
b. CC(C)c1nc(CN(C)C(=O)N[C@H](C(=O)N[C@@H](Cc2ccccc2)C[C@H](O)[C@H](Cc2ccccc2)NC(=O)OCc2cncs2)C(C)C)cs1
c. CCN(C[C@H](Cc1ccccc1)NC(=O)OCc1cncs1)C[C@H](Cc1ccccc1)NC(=O)OCc1cncs1
Rank the items above by Cmax, largest value first. Form field (ranking): labels in requested order.
b, c, a
(b: 1320 ng/mL, c: 610 ng/mL, a: 30 ng/mL)
